B1: Retinoic acid receptor beta, residues 85 to 161; numbered along this chain, P10826 (parent)
chain: YKPCFVCQDKSSGYHYGVSACEGCKGFFRRSIQKNMIYTCHRDKNCVINKVTRNRCQYCRLQKCFEVGMSKESVRND

Variants of: B1
Experiment: abundance fitness (aPCA) (normalised: wild type 0, dead -1); higher = more abundant; growth selection in yeast, the domain comes from the species named
Conditions: Homo sapiens
Each entry falls in a class defined on abundance fitness; the bands are LOW = under -0.3, MEDIUM = from -0.3 up to -0.009, HIGH = -0.009 and over

[
  {
    "MUTATION_LABEL": "K34V",
    "GROUP": "MEDIUM"
  },
  {
    "MUTATION_LABEL": "F27A",
    "GROUP": "LOW"
  },
  {
    "MUTATION_LABEL": "C56T",
    "GROUP": "LOW"
  },
  {
    "MUTATION_LABEL": "K44F",
    "GROUP": "MEDIUM"
  },
  {
    "MUTATION_LABEL": "C56A",
    "GROUP": "LOW"
  },
  {
    "MUTATION_LABEL": "N35C",
    "GROUP": "HIGH"
  },
  {
    "MUTATION_LABEL": "R29N",
    "GROUP": "HIGH"
  },
  {
    "MUTATION_LABEL": "C7W",
    "GROUP": "LOW"
  },
  {
    "MUTATION_LABEL": "G17V",
    "GROUP": "LOW"
  },
  {
    "MUTATION_LABEL": "P3F",
    "GROUP": "HIGH"
  },
  {
    "MUTATION_LABEL": "E22I",
    "GROUP": "MEDIUM"
  },
  {
    "MUTATION_LABEL": "H41Y",
    "GROUP": "MEDIUM"
  },
  {
    "MUTATION_LABEL": "K50M",
    "GROUP": "HIGH"
  },
  {
    "MUTATION_LABEL": "V51S",
    "GROUP": "HIGH"
  },
  {
    "MUTATION_LABEL": "I37T",
    "GROUP": "MEDIUM"
  },
  {
    "MUTATION_LABEL": "C24D",
    "GROUP": "LOW"
  },
  {
    "MUTATION_LABEL": "Y58K",
    "GROUP": "MEDIUM"
  },
  {
    "MUTATION_LABEL": "C40T",
    "GROUP": "LOW"
  },
  {
    "MUTATION_LABEL": "K44Q",
    "GROUP": "HIGH"
  },
  {
    "MUTATION_LABEL": "Y16W",
    "GROUP": "MEDIUM"
  },
  {
    "MUTATION_LABEL": "L61S",
    "GROUP": "LOW"
  },
  {
    "MUTATION_LABEL": "H15D",
    "GROUP": "HIGH"
  },
  {
    "MUTATION_LABEL": "S12H",
    "GROUP": "MEDIUM"
  },
  {
    "MUTATION_LABEL": "C59E",
    "GROUP": "LOW"
  },
  {
    "MUTATION_LABEL": "K34W",
    "GROUP": "HIGH"
  },
  {
    "MUTATION_LABEL": "Q62A",
    "GROUP": "HIGH"
  },
  {
    "MUTATION_LABEL": "H41P",
    "GROUP": "MEDIUM"
  },
  {
    "MUTATION_LABEL": "G13R",
    "GROUP": "MEDIUM"
  },
  {
    "MUTATION_LABEL": "R53V",
    "GROUP": "HIGH"
  },
  {
    "MUTATION_LABEL": "M36L",
    "GROUP": "HIGH"
  },
  {
    "MUTATION_LABEL": "M36K",
    "GROUP": "HIGH"
  },
  {
    "MUTATION_LABEL": "I37P",
    "GROUP": "MEDIUM"
  },
  {
    "MUTATION_LABEL": "C7Y",
    "GROUP": "LOW"
  },
  {
    "MUTATION_LABEL": "C24P",
    "GROUP": "LOW"
  },
  {
    "MUTATION_LABEL": "K10I",
    "GROUP": "HIGH"
  },
  {
    "MUTATION_LABEL": "S31V",
    "GROUP": "LOW"
  },
  {
    "MUTATION_LABEL": "Y14R",
    "GROUP": "MEDIUM"
  },
  {
    "MUTATION_LABEL": "C4V",
    "GROUP": "LOW"
  },
  {
    "MUTATION_LABEL": "H41W",
    "GROUP": "HIGH"
  },
  {
    "MUTATION_LABEL": "Y58G",
    "GROUP": "MEDIUM"
  },
  {
    "MUTATION_LABEL": "T52I",
    "GROUP": "MEDIUM"
  },
  {
    "MUTATION_LABEL": "L61V",
    "GROUP": "LOW"
  },
  {
    "MUTATION_LABEL": "H15F",
    "GROUP": "MEDIUM"
  },
  {
    "MUTATION_LABEL": "D9A",
    "GROUP": "LOW"
  },
  {
    "MUTATION_LABEL": "D9W",
    "GROUP": "LOW"
  },
  {
    "MUTATION_LABEL": "T52H",
    "GROUP": "LOW"
  },
  {
    "MUTATION_LABEL": "R53P",
    "GROUP": "HIGH"
  },
  {
    "MUTATION_LABEL": "Q57D",
    "GROUP": "HIGH"
  },
  {
    "MUTATION_LABEL": "F27S",
    "GROUP": "LOW"
  },
  {
    "MUTATION_LABEL": "R53Y",
    "GROUP": "HIGH"
  },
  {
    "MUTATION_LABEL": "G13W",
    "GROUP": "LOW"
  },
  {
    "MUTATION_LABEL": "V18G",
    "GROUP": "MEDIUM"
  },
  {
    "MUTATION_LABEL": "K10L",
    "GROUP": "HIGH"
  },
  {
    "MUTATION_LABEL": "Y14N",
    "GROUP": "MEDIUM"
  },
  {
    "MUTATION_LABEL": "K50Q",
    "GROUP": "HIGH"
  },
  {
    "MUTATION_LABEL": "V51W",
    "GROUP": "HIGH"
  },
  {
    "MUTATION_LABEL": "K44E",
    "GROUP": "MEDIUM"
  },
  {
    "MUTATION_LABEL": "K2A",
    "GROUP": "MEDIUM"
  },
  {
    "MUTATION_LABEL": "C40M",
    "GROUP": "LOW"
  },
  {
    "MUTATION_LABEL": "S19V",
    "GROUP": "HIGH"
  },
  {
    "MUTATION_LABEL": "F5L",
    "GROUP": "MEDIUM"
  },
  {
    "MUTATION_LABEL": "C40L",
    "GROUP": "LOW"
  },
  {
    "MUTATION_LABEL": "K34H",
    "GROUP": "MEDIUM"
  }
]
